IC50 reference
- Test system: Normal prostate cells (PREC)
- Test Details: Cell cytotoxicity, MTT assay, PREC
- Format: cell-based
- Condition Details: Homo sapiens, 72 h, three days incubation
Quantity Name: IC50 (µM)

>>> value_measured("CCc1cccc2c3c([nH]c12)C(CC)(CC(=O)O)OCC3 (stereo not drawn) [Etodolac, reference compound]")
416
>>> value_measured("CCc1cc(-c2ccccc2)cc2c3c([nH]c12)C(CC)(CCO)OCC3 (stereo not drawn) [Compound 1]")
53
>>> value_measured("CCc1cccc2c3c([nH]c12)[C@@](CC)(CCO)OCC3 [Compound 35]")
220
>>> value_measured("CCc1cc(Br)cc2c3c([nH]c12)C(CC)(CCO)OCC3 (stereo not drawn) [Compound 47]")
14
>>> value_measured("CCC1(CCO)OCCc2c1[nH]c1c(C(C)C)cccc21 (stereo not drawn) [Compound 36]")
160
>>> value_measured("CCC1(CCO)OCCc2c1[nH]c1c(Cl)cccc21 (stereo not drawn) [Compound 27]")
140

src = patent US7446122B2
